- System: MALME-3M melanoma
- METHOD: NCI tumour cell line growth inhibition, 48 h
Some molecules, each annotated with its measured TGI.

[
  {
    "MOLECULE": "Cc1sc(Cc2ccccc2)nc1-c1ccc(N)cc1",
    "TGI": "90.2 µM"
  },
  {
    "MOLECULE": "COC1CC(OS(=O)(=O)c2ccc(C)cc2)C(OC(=O)c2ccccc2)C(C)O1 (stereo unspecified)",
    "TGI": "> 100 µM"
  },
  {
    "MOLECULE": "CCOC(=O)C1=C(NC)OC/C1=N\\NC(=O)c1ccccc1O",
    "TGI": "> 100 µM"
  },
  {
    "MOLECULE": "O=S(=O)(Sc1ccc(Cl)cc1)c1ccc(Cl)cc1",
    "TGI": "48.9 µM"
  },
  {
    "MOLECULE": "NCCCN(CCCCN(CCCN)Cc1ccc2ccccc2c1)Cc1ccc2ccccc2c1",
    "TGI": "3.39 µM"
  },
  {
    "MOLECULE": "CCCCCCNC(=O)c1cnc(Cl)cn1",
    "TGI": "31.1 µM"
  },
  {
    "MOLECULE": "CSCC1CC(c2ccc(Cl)cc2)=NO1 (stereo unspecified)",
    "TGI": "> 100 µM"
  },
  {
    "MOLECULE": "N#C/C(=C\\c1ccccc1)C(=O)Nc1nnc(-c2ccccc2)o1",
    "TGI": "> 100 µM"
  },
  {
    "MOLECULE": "CC(C)(C)c1ccc(OCCCCCCN2CCNCC2)cc1",
    "TGI": "13.1 µM"
  },
  {
    "MOLECULE": "COc1c2c(cc3oc(C)cc(=O)c13)OC(=N)C(C(N)=O)C2CC(=O)c1ccc(N)cc1 (stereo unspecified)",
    "TGI": "> 100 µM"
  }
]

Note: attention shifts to another entry.
Kindly note the recorded TGI for `COc1ccc(NC(=O)/C(=N\NC(=O)C[n+]2ccccc2)c2c(O)c3ccc(O)cc3oc2=O)c([N+](=O)[O-])c1` , which is > 100 µM

====

- Test system: OVCAR-3 ovarian
- METHOD: NCI tumour cell line growth inhibition, 48 h; in the data active = GI50 below about 0.43 µM; inactive = the rest
// one of active, inactive, no free text

Answered examples (8):
[
  {
    "COMPOUND": "C[C@@H]1CC[C@H]2C(COCCOCC3=C(C(F)(F)F)O[C@@H]4O[C@@]5(C)CC[C@H]6[C@H](C)CC[C@@H]3[C@@]46OO5)=C(C(F)(F)F)O[C@@H]3O[C@@]4(C)CC[C@@H]1[C@]32OO4",
    "SYSTEM NAME": "OVCAR-3 ovarian",
    "CLASS NAME": "active"
  },
  {
    "COMPOUND": "C=CC(=O)N(C)[C@H]1C[C@H]2OC(C)(C1OC)n1c3ccccc3c3c4c(c5c6ccccc6n2c5c31)C(=O)NC4 (some centres undefined)",
    "SYSTEM NAME": "OVCAR-3 ovarian",
    "CLASS NAME": "active"
  },
  {
    "COMPOUND": "CC(C)CC(CC1=CCC2CC1C2(C)C)C1=C(O)C(C)(C)C(=O)C(C)(C)C1=O (centres undefined)",
    "SYSTEM NAME": "OVCAR-3 ovarian",
    "CLASS NAME": "active"
  },
  {
    "COMPOUND": "O[C@H]1CO[C@H]2[C@@H]1OC[C@@H]2Oc1ccc(Nc2ccnc(Nc3ccc(O[C@H]4CO[C@H]5[C@@H]4OC[C@@H]5O)c(Cl)c3)n2)cc1Cl",
    "SYSTEM NAME": "OVCAR-3 ovarian",
    "CLASS NAME": "inactive"
  },
  {
    "COMPOUND": "Clc1cc(Cl)c(OCC#CI)cc1Cl",
    "SYSTEM NAME": "OVCAR-3 ovarian",
    "CLASS NAME": "inactive"
  },
  {
    "COMPOUND": "CN(C)c1ccc(/C=C\\c2cccc[n+]2C)cc1",
    "SYSTEM NAME": "OVCAR-3 ovarian",
    "CLASS NAME": "inactive"
  },
  {
    "COMPOUND": "COc1cc2c(cc1OCCCCOc1cc3c(cc1OC)C(=O)N1CCC[C@H]1CN3)N=C[C@@H]1CCCN1C2=O",
    "SYSTEM NAME": "OVCAR-3 ovarian",
    "CLASS NAME": "inactive"
  },
  {
    "COMPOUND": "CC(CN1CCN(CCOCCO)CC1)CN1c2ccccc2Sc2ccc(Cl)cc21 (centres undefined)",
    "SYSTEM NAME": "OVCAR-3 ovarian",
    "CLASS NAME": "inactive"
  }
]

Outcome logged for `O=C(NN1C(=O)CSC12CCCCC2)c1[nH]c2ccc(F)cc2c1-c1ccccc1` in this assay:
inactive
